pIC50: −log10 of the molar value.
Collected set of pIC50 measured with HPK1 (Homo sapiens (Human), UniProt Q92918) across studies.
quantity.measured: pIC50

Known results for compounds:
COc1cc2c(cc1Nc1ncc(C(N)=O)c(Nc3cccc(F)c3)n1)CN(C)CC2 | 9.54
CNC(=O)c1ccc(Nc2ncc3c(N)c(F)c(-c4cnc5c(c4C)NCCO5)cc3n2)cc1 | 10.29
Cc1c(N)cncc1-c1cc2nc(Nc3ccc4c(c3)CN(C)CC43CC3)ncc2c(N)c1F | 10.33
COc1cc2c(cc1Nc1ncc3c(N)c(F)c(-c4cc(C#N)ccc4C)cc3n1)CN(C)CC2 | 6.32

1: CNC(=O)Cn1cc(Nc2ncc3c(N)c(F)c(-c4cnc5c(c4C)NCCO5)cc3n2)c(C)n1
2: CS(=O)(=O)c1ccc(-c2cnc3[nH]cc(C4CC4)c3c2Cl)cc1N1CCCNC1=O
When their pIC50 values are compared, which is larger, 1 or 2 ? Selection: enter the item's label.
1

I: Cc1cc(-c2c[nH]c3ncc(-c4cc(C)c5c(c4)CN(C)CC5)nc23)ccc1C(=O)N(C)CC(C)(C)O
II: COc1cc2c(cc1Nc1ncc(C(N)=O)c(NC3CCC(F)(F)C3)n1)CN(C)CC2 (stereo not shown)
Given the two records I and II , choose the one whose pIC50 value is lower. Selection: enter the item's label.
I
(I: 6.73, II: 8.97)

----------
pIC50: −log10 of the molar value.
Collected set of pIC50 measured with HPK1 (Homo sapiens (Human)) across studies.
quantity.measured: pIC50

COc1cc2c(cc1Nc1ncc(C(N)=O)c(Nc3ccccc3C#N)n1)CN(C)CC2 | 9.47

P: Cc1c(-c2cc3nc(Nc4ccc5c(c4)CN(C)C(C)C5)ncc3c(N)c2F)cnc2c1NCCO2 (single isomer, unassigned)
Q: CC(C)c1cccc(Nc2ncc(C(N)=O)c(Nc3cccc4c3CCNC4=O)n2)c1
R: Cc1cc(-c2c[nH]c3ncc(-c4cc(C)c5c(c4)CN(CCN4CCOCC4)CC5)nc23)ccc1C(=O)N(C)C[C@@H]1CCOC1
S: Cc1c(-c2cc3nc(Nc4ccccc4C4CC4)ncc3c(N)c2F)cnc2c1NCCO2
Sort the 4 compounds by pIC50; largest first, smallest last. Would you mind listing the labels in the order requested?
P, Q, S, R

----------
Collected set of IC50 measured with HPK1 (Homo sapiens (Human), UniProt Q92918) across studies.

Known results for compounds:
Cn1ccn2c(-c3ccc(Nc4ccc(N5CCC(O)CC5)cn4)c4c3CNC4=O)cnc2c1=O | < 100 nM
CN(C)CCN1CCC(c2ccc(Nc3cnc(-c4ccnc5c4ccn5C)c4c3C(=O)NC4)nc2)CC1=O (stereo not drawn) | < 100 nM
COc1cc2c(cc1Nc1ncc3ccc(-c4cc(N)cc(C#N)c4)cc3n1)CNCC2 | 114 nM
COc1ncccc1Nc1ncc2c(n1)N1CCN=C1C(c1cc(NC(=O)c3cc(C(F)(F)F)ccn3)ccc1C)=C2 | < 100 nM
COc1cc2c(cc1Nc1ncc3c(N)c(F)c(-c4cnc5c(c4C)NCCO5)cc3n1)CN(C)CC2(C)C | 0.325 nM

Lookup: IC50 / HPK1 (Homo sapiens (Human), UniProt Q92918) / CN1CCN(CC2(O)CCN(c3ccc(Nc4ccc(-c5cnc6ccccn56)c5c4C(=O)NC5)nc3)CC2)CC1
< 100 nM

Lookup: IC50 / HPK1 (Homo sapiens (Human), UniProt Q92918) / Cc1ccc(NC(=O)c2cc(C(F)(F)F)ccn2)cc1C1=Cc2cnc(NCCF)nc2N2CCN=C12
100 to 10000 nM

Lookup: IC50 / HPK1 (Homo sapiens (Human), UniProt Q92918) / COc1cc2c(cc1Nc1ncc3ccc(Nc4cccc(C(=O)N(C)C)c4)cc3n1)CN(C)CC2
81.5 nM

Lookup: IC50 / HPK1 (Homo sapiens (Human), UniProt Q92918) / CN1CCN2c3ccc(-c4n[nH]c5cc(C#N)c(-c6cnn7ccccc67)cc45)cc3OCC2C1 (stereo not drawn)
10 to 100 nM

Lookup: IC50 / HPK1 (Homo sapiens (Human), UniProt Q92918) / Cc1ccn2c(-c3ncc(Nc4cccc(N5CC[C@@H]6CNC[C@@H]65)n4)c4c3CNC4=O)cnc2c1F
100 to 1000 nM

Lookup: IC50 / HPK1 (Homo sapiens (Human), UniProt Q92918) / [2H]C([2H])([2H])C([2H])(n1ncc2c(N3C[C@@H](C)[C@@H](N)C3)c(NC(=O)c3ccc(=O)n(-c4c(F)cccc4F)n3)ccc21)C([2H])([2H])[2H]
< 100 nM

Lookup: IC50 / HPK1 (Homo sapiens (Human), UniProt Q92918) / CN1CCc2[nH]c(=O)c(Nc3ncc4ccnc(N5CCOCC5)c4n3)cc2C1
26.9 nM

Lookup: IC50 / HPK1 (Homo sapiens (Human), UniProt Q92918) / COc1cc(-c2cc(Nc3ccc(N4CCNCC4)cn3)c3c(=O)[nH]ccc3n2)c(F)cc1C(=O)N1CCC1
100 to 1000 nM

Lookup: IC50 / HPK1 (Homo sapiens (Human), UniProt Q92918) / C/C(Nc1cc(C)n(C)n1)=C1/C(=O)Nc2cnc(-c3c(C)cccc3F)cc21
< 50 nM

Lookup: IC50 / HPK1 (Homo sapiens (Human), UniProt Q92918) / CN(C(=O)c1ccc(-c2cc(Nc3ccc(N4CCC(O)CC4)cn3)c3c(=O)[nH]ccc3n2)c(F)c1)C1CCCCC1
> 1000 nM

----------
Collected set of IC50 measured with HPK1 (Homo sapiens (Human), UniProt Q92918) across studies.
quantity.measured: IC50 (nM)

N#CC1(c2cccc(Nc3ncc(C(N)=O)c(Nc4cccc5c4CCNC5=O)n3)c2)CC1 | 2.78
Cc1cc(-c2cnc(N)c(Oc3cnn(C(C)(C)CC#N)c3)n2)cc2c1CCN(C)C2 | 8.3

I: CNC(=O)c1ccc(-c2ccc3cnc(Nc4cc5c(cc4OC)CCNC5)nc3c2)cn1
II: COc1cc2c(cc1Nc1ncc(C(N)=O)c(N[C@H]3c4ccccc4C[C@H]3O)n1)CN(C)CC2
Given the two records I and II , choose the one whose IC50 value is lower. Selection: enter the item's label.
II

----------
Collected set of IC50 measured with HPK1 (Homo sapiens (Human)) across studies.

Known results for compounds:
CC[C@@H]1CN(c2c(NC(=O)c3ccc(=O)n(-c4c(F)cccc4F)n3)ccc3c2cnn3C(C)C)C[C@@H]1N (single isomer, unassigned) | < 0.1 µM
COc1cc2c(cc1Nc1ncc(C(N)=O)c(Nc3cccc(CO)c3)n1)CN(C)CC2 | 0.00035 µM
CNCc1cc(F)c(-c2cc3c(-c4ccc5c(c4)OCC4CN(C)CCN54)c[nH]c3cc2C#N)c(F)c1 (stereo not shown) | ≤ 0.01 µM

Lookup: IC50 / HPK1 (Homo sapiens (Human)) / CN1CCN(c2ccc3nc(-c4c(NC5CCN(C=O)CC5)c5ccsc5[nH]c4=O)[nH]c3c2)CC1
≤ 0.05 µM

Lookup: IC50 / HPK1 (Homo sapiens (Human)) / CCS(=O)(=O)n1cc(N/C(C)=C2\C(=O)Nc3cnc(-c4cnccc4C)cc32)cn1
< 0.05 µM

Lookup: IC50 / HPK1 (Homo sapiens (Human)) / C/C(Nc1cc2n(n1)CC(=O)N(C)C2)=C1/C(=O)Nc2cnc(-c3cnccc3C)cc21
< 0.05 µM

Lookup: IC50 / HPK1 (Homo sapiens (Human)) / CCn1ccc2c(-c3ccc(Nc4ccc(N5CCN(C)CC5)cn4)c4c3CNC4=O)ccnc21
< 0.1 µM

----------
Collected set of IC50 measured with HPK1 (Homo sapiens (Human)) across studies.

Cn1ccc2c(-c3ccc(Nc4ccc(N5CCC(O)(CN6CCOCC6)CC5)cn4)c4c3CNC4=O)ccnc21 | < 100 nM

Lookup: IC50 / HPK1 (Homo sapiens (Human)) / CN(C)Cc1cc(C2CCOCC2)cc(Nc2ccc(-c3cnc4cc(F)ccn34)c3c2C(=O)NC3)n1
≤ 100 nM

Lookup: IC50 / HPK1 (Homo sapiens (Human)) / COc1cccc(F)c1-c1cc2c(cn1)NC(=O)/C2=C(/C)Nc1cnn(C(F)F)c1
50 to 100 nM

Lookup: IC50 / HPK1 (Homo sapiens (Human)) / Cn1ccc2c(-c3ncc(Nc4cccc(N5C[C@H](N)CC5=O)n4)c4c3CNC4=O)ccnc21
< 100 nM

----------
pIC50: −log10 of the molar value.
Collected set of pIC50 measured with UniProt:Q92918 across studies.

Known results for compounds:
O=c1[nH]ccc2nc(-c3ccc(OCc4ccncc4)cc3F)cc(Nc3ccc(N4CCC(O)CC4)cn3)c12 | 6.00 to 7.00
Cc1cccc(F)c1-n1nc2c(-c3ccc4c(c3)CN(C)C(C)(C)C4)n[nH]c2cc1=O | 6.30 to 7.30
COc1cc2c(cc1Nc1ncc(C(N)=O)c(Nc3cccc4c3CCN(CC(F)(F)F)C4)n1)CN(C)CC2 | 9.46

Looking for the measured pIC50 of CCc1cccc(F)c1-n1nc2c(-c3ccc(N4CCN(CCO)CC4)cc3)n[nH]c2cc1=O , can you help?
≥ 7.30

Looking for the measured pIC50 of C/C(Nc1ccn(C)n1)=C1/C(=O)Nc2cnc(-c3cncc4c3OCC(=O)N4)cc21 , can you help?
> 7.30

Looking for the measured pIC50 of Cc1ccc(Nc2ncc(C(N)=O)c(Nc3cccc4c3CCNC4=O)n2)c(F)c1F , can you help?
7.71

Looking for the measured pIC50 of C/C(Nc1ccn(CC(=O)N2CCOCC2)n1)=C1/C(=O)Nc2cnc(-c3cnccc3C)cc21 , can you help?
> 7.30

Looking for the measured pIC50 of CNc1cc2c(cn1)C=C(c1cc(NC(=O)c3cc(C(F)(F)F)ccn3)ccc1C)C1=NCCN12 , can you help?
5.00 to 7.00
